Recorded values, source ChEMBL document CHEMBL5335794.

Target: GABA transporter 2 (Mus musculus)
Sequence (P31651 whole entry): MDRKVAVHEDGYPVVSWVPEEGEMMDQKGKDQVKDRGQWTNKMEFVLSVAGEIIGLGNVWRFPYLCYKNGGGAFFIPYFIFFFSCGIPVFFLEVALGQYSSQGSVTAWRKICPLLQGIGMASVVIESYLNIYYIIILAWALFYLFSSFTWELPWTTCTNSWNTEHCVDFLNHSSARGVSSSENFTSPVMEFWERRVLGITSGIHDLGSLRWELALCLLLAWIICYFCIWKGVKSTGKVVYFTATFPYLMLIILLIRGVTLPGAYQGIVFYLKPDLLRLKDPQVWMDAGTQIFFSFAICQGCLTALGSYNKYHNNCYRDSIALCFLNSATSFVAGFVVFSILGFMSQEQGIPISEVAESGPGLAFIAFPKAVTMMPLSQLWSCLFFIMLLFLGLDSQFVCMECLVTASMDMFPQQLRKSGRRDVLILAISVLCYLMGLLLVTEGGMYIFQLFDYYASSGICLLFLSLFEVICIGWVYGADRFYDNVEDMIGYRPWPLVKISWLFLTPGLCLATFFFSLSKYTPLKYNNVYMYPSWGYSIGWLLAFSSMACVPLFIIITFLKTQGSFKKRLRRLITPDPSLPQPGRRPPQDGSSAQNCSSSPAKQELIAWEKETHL
Experiment: Inhibition of mouse GAT2 transfected in HEK293 cells assessed as reduction in [3H]-GABA uptake preincubated for 25 mins followed by [3H]-GABA addition and measured after 10 mins by liquid scintillation counting analysis
Type: cell-based
Settings: read-out: pIC50 (converted)
Could you mark each record YES if its IC50 falls strictly under 10 µM, and NO if it equals or exceeds it?

Example entries begin here.
Decide: IC50 of CN(CCOCCN1c2ccccc2Sc2ccccc21)C(CCO)C(=O)NCc1ccccc1 (stereo not given) strictly below 10 µM? NO

Thanks! And CN(CCOCCn1c2ccccc2c2ccccc21)C(CCO)C(=O)NCc1ccc(F)cc1 (stereo not given) ? NO

Further cases:
Please let me know if CC(O)CC(C(=O)NCc1ccccc1Cl)N(C)CC/C=C/c1ccccc1-c1ccccc1 (racemic; form 2) shows IC50 below 10 µM. NO

What do you have for CN(CCOCCN1c2ccccc2Sc2ccccc21)C(CCO)C(=O)NCc1ccc(F)cc1 (stereo not given) ? NO

* * *

Biological target: GABA transporter 2 (Mus musculus, UniProt P31651)
Experiment: Inhibition of mouse GAT2 transfected in HEK293 cells assessed as reduction in [3H]-GABA uptake preincubated for 25 mins followed by [3H]-GABA addition and measured after 10 mins by liquid scintillation counting analysis
Type: cell-based
Conditions: read-out: pIC50 (converted)
Kindly state IC50 for each of the entries shown.
Numbers only, in µM.

Example molecules with recorded IC50:
Given CN(CCOCCN1c2ccccc2Sc2ccccc21)C(CCN)C(=O)NCc1ccc(Cl)cc1 (stereo unspecified) , state its recorded IC50. 12.3

Next up: CN(CC/C=C/c1ccccc1-c1ccccc1)C(CO)C(=O)NCc1ccc(F)cc1 (stereo unspecified) 22.4

Then CC(=O)NCCC(C(=O)NCc1ccc(Cl)cc1)N(C)CCOCCN1c2ccccc2Sc2ccccc21 (stereo unspecified) ? 9.55

// each listed molecule needs a value for IC50
1. CC(O)CC(C(=O)NCc1ccc(F)cc1)N(C)CC/C=C/c1ccccc1-c1ccccc1 (racemic; form 2)
2. CN(CC/C=C/c1ccccc1-c1ccccc1)C(CO)C(=O)NCc1ccccc1Cl (stereo unspecified)
3. CN(CCOCCN1c2ccccc2Sc2ccccc21)C(CCO)C(=O)NCc1ccccc1Cl (stereo unspecified)
4. CN(CCOCCn1c2ccccc2c2ccccc21)C(CCO)C(=O)NCc1ccccc1Cl (stereo unspecified)

[11.7, 11, 31.6, 16.2]

Please give IC50, item by item, for the list that follows.
1. CC(O)CC(C(=O)NCc1ccc(F)cc1)N(C)CC/C=C/c1ccccc1-c1ccccc1 (racemic; form 1)
2. Cc1ccc(CNC(=O)C(CCN)N(C)CCOCCN2c3ccccc3Sc3ccccc32)cc1 (stereo unspecified)
3. CN(CCOCCN1c2ccccc2Sc2ccccc21)C(CCN)C(=O)NCc1ccc(F)cc1 (stereo unspecified)
4. CC(O)CC(C(=O)NCc1ccccc1)N(C)CC/C=C/c1ccccc1-c1ccccc1 (racemic; form 1)

[9.77, 7.76, 10.2, 18.2]
